- subject_of_test: human GLP-1R (Homo sapiens (Human), UniProt P43220)
- Sequence (P43220 24-463): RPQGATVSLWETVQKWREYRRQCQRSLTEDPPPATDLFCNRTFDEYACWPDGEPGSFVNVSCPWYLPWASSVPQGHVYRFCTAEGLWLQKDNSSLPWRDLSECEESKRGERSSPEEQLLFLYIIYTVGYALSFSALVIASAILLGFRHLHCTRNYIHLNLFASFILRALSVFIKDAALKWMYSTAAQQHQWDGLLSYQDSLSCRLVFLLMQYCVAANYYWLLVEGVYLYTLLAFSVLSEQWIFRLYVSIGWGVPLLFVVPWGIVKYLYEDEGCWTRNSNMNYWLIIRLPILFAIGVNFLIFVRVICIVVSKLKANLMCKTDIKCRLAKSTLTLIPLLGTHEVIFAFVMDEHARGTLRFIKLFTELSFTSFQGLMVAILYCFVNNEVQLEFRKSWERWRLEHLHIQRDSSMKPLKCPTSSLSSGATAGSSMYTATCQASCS
- assay_protocol: Human GLP-1 Receptor HEK293 Cell cAMP Assay
- cond: EC50 (nM) ± SEM (n), HEK293 cell line with 581 fmol/mg expression density of GLP-1R, intracellular cAMP response; relative EC50
# EC50 values compiled below
observed_property: EC50 (nM)

>>> df
                                   compound                           subject_of_test  endpoint_unit  numeric_value
0  Cc1c(-c2cccc(OCc3ccc(C#N)cc3F)n2)ccc(Cc2nc3ccc(C(=O)O)cc3n2C[C@@H]2CCO2)c1F [Example 5]  human GLP-1R (Homo sapiens (Human), UniProt P43220)             nM           6.45
1  N#Cc1ccc(COc2cccc(-c3cc(F)c(Cc4nc5ccc(C(=O)O)cc5n4C[C@@H]4CCO4)c(F)c3)n2)c(F)c1 [Example 4]  human GLP-1R (Homo sapiens (Human), UniProt P43220)             nM           3.99
2  Cc1cc(Cc2nc3ccc(C(=O)O)cc3n2C[C@@H]2CCO2)c(F)cc1-c1cccc(OCc2ccc(C#N)cc2F)n1 [Example 2]  human GLP-1R (Homo sapiens (Human), UniProt P43220)             nM           1.14
3  Cc1cc(Cc2nc3ccc(C(=O)O)cc3n2C[C@@H]2CCO2)ccc1-c1cccc(OCc2ccc(C#N)cc2F)n1 [Example 1]  human GLP-1R (Homo sapiens (Human), UniProt P43220)             nM           9.33

###

- subject_of_test: UniProt P43220
- assay_protocol: Human GLP-1 Receptor HEK293 Cell cAMP Assay
- cond: HEK293, read-out: Emax (%) ± SEM (n), HEK293 cell line with 581 fmol/mg expression density of GLP-1R; percent of maximal response with human GLP-1(7-36)NH2
observed_property: Emax (%)

>>> print(df.to_string())
                                   compound  endpoint_unit  numeric_value
0  Cc1cc(Cc2nc3ccc(C(=O)O)cc3n2C[C@@H]2CCO2)c(F)cc1-c1cccc(OCc2ccc(C#N)cc2F)n1 [Example 2]              %            104
1  Cc1c(-c2cccc(OCc3ccc(C#N)cc3F)n2)ccc(Cc2nc3ccc(C(=O)O)cc3n2C[C@@H]2CCO2)c1F [Example 5]              %            105
2  Cc1cc(Cc2nc3ccc(C(=O)O)cc3n2C[C@@H]2CCO2)ccc1-c1cccc(OCc2ccc(C#N)cc2F)n1 [Example 1]              %           99.5
3  N#Cc1ccc(COc2cccc(-c3cc(F)c(Cc4nc5ccc(C(=O)O)cc5n4C[C@@H]4CCO4)c(F)c3)n2)c(F)c1 [Example 4]              %           99.2

###

EC50 values by entry
- subject_of_test: human GLP-1R (Homo sapiens (Human), UniProt P43220)
- assay_protocol: Human GLP-1 Receptor HEK293 Cell cAMP Assay
- cond: EC50 (nM) ± SEM (n), HEK293 cell line with 104 fmol/mg expression density of GLP-1R, intracellular cAMP response; relative EC50
observed_property: EC50 (nM)

In [3]: df
Out[3]:
                                   molecule  endpoint_unit  numeric_value
0  Cc1c(-c2cccc(OCc3ccc(C#N)cc3F)n2)ccc(Cc2nc3ccc(C(=O)O)cc3n2C[C@@H]2CCO2)c1F [Example 5]             nM           23.6
1  Cc1cc(Cc2nc3ccc(C(=O)O)cc3n2C[C@@H]2CCO2)c(F)cc1-c1cccc(OCc2ccc(C#N)cc2F)n1 [Example 2]             nM           3.97
2  Cc1cc(Cc2nc3ccc(C(=O)O)cc3n2C[C@@H]2CCO2)ccc1-c1cccc(OCc2ccc(C#N)cc2F)n1 [Example 1]             nM             20
3  N#Cc1ccc(COc2cccc(-c3cc(F)c(Cc4nc5ccc(C(=O)O)cc5n4C[C@@H]4CCO4)c(F)c3)n2)c(F)c1 [Example 4]             nM           9.59
